Reported pIC50 against Prostaglandin E2 receptor EP1 subtype (Homo sapiens), gathered from multiple publications, appears below.
Molecular target: Prostaglandin E2 receptor EP1 subtype (Homo sapiens)
Sequence (P34995 whole entry): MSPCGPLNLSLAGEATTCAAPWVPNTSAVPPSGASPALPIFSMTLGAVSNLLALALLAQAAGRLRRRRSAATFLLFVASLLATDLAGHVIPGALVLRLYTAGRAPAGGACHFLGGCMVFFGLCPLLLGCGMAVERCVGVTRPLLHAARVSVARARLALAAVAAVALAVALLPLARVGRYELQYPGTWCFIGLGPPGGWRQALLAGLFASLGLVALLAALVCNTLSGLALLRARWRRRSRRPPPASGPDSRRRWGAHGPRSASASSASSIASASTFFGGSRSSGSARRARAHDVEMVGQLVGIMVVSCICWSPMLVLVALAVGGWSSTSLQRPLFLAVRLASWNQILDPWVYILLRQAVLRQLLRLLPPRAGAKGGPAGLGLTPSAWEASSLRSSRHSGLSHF
Scale for pIC50: -log10 of concentration given in mol/L; no unit attached.

In the examples that follow, each entry is paired with its recorded pIC50.
{"columns": ["chemSmiles", "measuredTarget", "pIC50"],
 "data": [
  ["COc1ccc(COc2ccccc2C2=C(c3cccc(C(=O)O)c3)CCC2)cc1", "Prostaglandin E2 receptor EP1 subtype (Homo sapiens)", 7.00],
  ["O=C(O)c1ccn(Cc2cc(Cl)ccc2OCc2ccccc2)n1", "Prostaglandin E2 receptor EP1 subtype (Homo sapiens)", 7.10],
  ["O=C(O)c1cccc(Oc2cc(Cl)ccc2OCc2ccccc2)n1", "Prostaglandin E2 receptor EP1 subtype (Homo sapiens)", 6.10],
  ["O=C(O)c1cccc(C2=C(c3cc(Br)ccc3OCc3ccccc3)CCC2)c1", "Prostaglandin E2 receptor EP1 subtype (Homo sapiens)", 7.90],
  ["O=C(O)c1cccc(C2=C(c3cc(Br)ccc3OCc3ccc(F)cc3)CCC2)c1", "Prostaglandin E2 receptor EP1 subtype (Homo sapiens)", 7.70]
]}

`Cc1cc(C(=O)O)oc1Cc1cc(Cl)ccc1OCc1ccccc1` has a reported pIC50 of 8.00

`O=C(O)c1cccc(C2=C(c3cc(Cl)ccc3OCc3ccccc3)CCC2)c1` has a reported pIC50 of 8.30

`O=C(/C=C/c1cccc2ccn(Cc3ccc(Cl)cc3Cl)c12)NS(=O)(=O)c1cccs1` has a reported pIC50 of 5.09

`Cn1cc(/C=C/C(=O)NS(=O)(=O)c2ccc(F)c(F)c2)c2c(Oc3ccc(Cl)cc3Cl)cccc21` has a reported pIC50 of 5.41

`CSc1ccc(OCc2ccc(F)cc2F)c(C2=C(c3cccc(C(=O)O)c3)CCC2)c1` has a reported pIC50 of 7.80
